# Tested on: breast cancer cell line MaTu
# experiment: MTT growth inhibition in breast cancer cell line MaTu
# Format: cell-based, human
# conditions_used: Homo sapiens, 96 h; MaTu cells, 4 days incubation, MTT; read-out: IC50 μM ± Standard Deviation
# Method: The breast cancer cell line MaTu was seeded, 5×10^3 cells per well, in 96-well-plates. The medium was RMPI 1640 with 2 mM Glutamine and 10% Foetal Bovine Serum. 24 hours later the test compounds were added in 6 concentrations. The cells were incubated for 4 days. The MTT solution was added to each well and incubated for 4 hours. The samples were read by an ELISA reader at 540 nm. The IC50 values were determined from growth curves. […]
metric: IC50 (µM)

>  <compound>
CCCCCCCCCCC/C=C/CCCCC(=O)Nc1ccn([C@@H]2CO[C@H](CO)O2)c(=O)n1 [troxacitabine-petroselaidic amide]

>  <unit_string>
µM

>  <IC50>
0.15

$$$$

a = CCCCCCCCCCC/C=C/CCCCC(=O)OC[C@H]1OC[C@@H](n2ccc(N)nc2=O)O1 [troxacitabine petroselaidoate]
b = CCCCC/C=C\C/C=C\C/C=C\CCCCC(=O)OC[C@H]1OC[C@@H](n2ccc(N)nc2=O)O1 [troxacitabine γ-linolenoate]
**Query** Hi, I'm comparing a with b and wondering which one has the bigger number for IC50. Any idea? Give the chosen item's label as your response.
**Result** b
(b: 0.83 µM, a: 0.18 µM)
